# assay procedure: Selectivity index, ratio of CC50 for cytotoxicity against human Huh-7 cells to IC50 for antiviral activity against Human coronavirus 229E expressing luciferase reporter gene infected in Huh-7 cells
# Assay type: toxicity, cell-based
# condition context: read-out: Ratio CC50/IC50
endpoint: selectivity ratio
Answers are plain numbers.

compound: CCC(CC)COC(=O)[C@H](C)N[P@](=O)(OC[C@H]1O[C@@](C#N)(c2ccc3c(N)ncnn23)[C@H](O)[C@@H]1O)Oc1ccccc1
measurement: 2250
--
compound: CC(=O)OC[C@@]12CC[C@H]3C(C)(C)CCC[C@]3(C)[C@H]1C[C@@H](C1=CC(=O)OC1O)O2 (stereo not given in full)
measurement: 6.2
--
compound: CC1(C)CCC[C@@]2(C)[C@H]1CC[C@@]1(CO)O[C@H](C3=CC(=O)OC3O)C[C@@H]12 (stereo not given in full)
measurement: 3

Please look at the items below and tell me selectivity ratio for each one, in order.
1. CC1(C)CCC[C@@]2(C)[C@H]1CC[C@]13CO[C@@H]4OC(=O)C=C4[C@H](C[C@@H]12)O3
2. CC1(C)CCC[C@@]2(C)[C@H]1CC[C@]1(CO)O[C@H](C3=CC(=O)OC3O)C[C@@H]12 (stereo not given in full)

A:
[3.7, 6.8]
